TEST SYSTEM: recombinant N-terminal MLH1 (residues 15-340) (Homo sapiens, UniProt P40692)
Construct: recombinant N-terminal MLH1 (residues 15-340)
ASSAY PROCEDURE: Fluorescence Polarisation Assay for MLH1
STUDY CONDITIONS: 100 nM N-terminal MLH1, 5 nM probe compound
REPORTED PROPERTY: IC50

Please review the entries below; each comes with its answer.
* O=C(c1c(O)cc(C(F)F)cc1OCc1ccccc1)N1Cc2ccccc2C1 | 1000 to 10000 nM
* O=C(c1c(O)cc(C(F)F)cc1OCc1ccc2ccncc2c1)N1CCc2cccc(N[C@H]3CCOC3)c2C1 | 100 to 1000 nM
* COc1cc2c(c(N[C@H]3CCOC3)c1)CN(C(=O)c1c(O)cc(Cl)cc1OCc1ccccc1)C2 | 100 to 1000 nM
* CNc1cccc2c1CN(C(=O)c1c(O)cc(C(F)F)cc1OCc1ccccc1)CC2 | 1000 to 10000 nM
* CN(C)CCOc1ccc2c(c1)CCN(C(=O)c1c(O)cc(C#N)cc1OCc1ccccc1)C2 | 1000 to 10000 nM
* CN(C)CCOc1ccc2c(c1)CCN(C(=O)c1c(O)cc(Cl)cc1OCc1ccccc1)C2 | 1000 to 10000 nM
* CN1CCC(Oc2ccc3c(c2)CCN(C(=O)c2c(O)cc(C(F)F)cc2OCc2ccccc2)C3)CC1 | 100 to 1000 nM
* O=C(c1c(O)cc(C(F)F)cc1OCc1ccccc1)N1CCc2cc(Cn3ccnc3)ccc2C1 | 100 to 1000 nM
* COc1ccc(COc2cc(C(F)F)cc(O)c2C(=O)N2Cc3cccc(N[C@H]4CCOC4)c3C2)cc1 | 100 to 1000 nM
* COc1cc2c(c(N[C@H]3CCOC3)c1)CN(C(=O)c1c(O)cc(C(F)F)cc1OCc1ccccc1)CC2 | 100 to 1000 nM

Entry "CN(C)CCOc1cc2c(c(N[C@H]3CCOC3)c1)CN(C(=O)c1c(O)cc(C#N)cc1OCc1ccccc1)CC2" — recorded IC50 = < 100 nM

"Cn1cnc(-c2cc3c(c(N[C@H]4CCOC4)c2)CN(C(=O)c2c(O)cc(C(F)F)cc2OCc2ccccc2)CC3)c1" has a reported IC50 of 100 to 1000 nM

Looking up "N#Cc1cc(O)c(C(=O)N2CCc3cccc(N[C@H]4CCOC4)c3C2)c(OCc2ccccc2)c1" , I see its IC50 listed as 100 to 1000 nM

IC50 reported for this molecule N#Cc1cc(O)c(C(=O)N2CCc3cc(NC4CCOC4)ccc32)c(OCc2ccccc2)c1 (stereo not drawn) : 1000 to 10000 nM

Value of measured IC50 for the entry "CN1CC[C@H](Oc2ccc3c(c2)CN(C(=O)c2c(O)cc(C(F)F)cc2OCc2ccccc2)CC3)C1" : 100 to 1000 nM

----------
TEST SYSTEM: recombinant N-terminal MLH1 (residues 15-340) (Homo sapiens, UniProt P40692)
Construct: recombinant N-terminal MLH1 (residues 15-340)
Sequence (P40692 15-340): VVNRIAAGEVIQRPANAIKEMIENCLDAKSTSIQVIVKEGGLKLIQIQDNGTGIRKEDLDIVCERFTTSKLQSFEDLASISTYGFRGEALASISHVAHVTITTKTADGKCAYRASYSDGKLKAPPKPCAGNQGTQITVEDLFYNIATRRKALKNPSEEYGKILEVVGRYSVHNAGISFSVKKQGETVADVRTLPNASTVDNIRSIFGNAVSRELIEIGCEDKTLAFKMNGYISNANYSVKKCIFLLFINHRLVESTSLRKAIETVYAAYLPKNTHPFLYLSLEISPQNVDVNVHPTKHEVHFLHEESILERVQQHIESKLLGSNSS
ASSAY PROCEDURE: Fluorescence Polarisation Assay for MLH1
Type: binding
STUDY CONDITIONS: 100 nM N-terminal MLH1, 5 nM probe compound
Examples of molecules with documented IC50 follow.

Solved entries:
* CN1CC(Oc2ccc3c(c2)CN(C(=O)c2c(O)cc(C(F)F)cc2OCc2ccccc2)C3)C1 | < 100 nM
* COc1cc(O)c(C(=O)N2Cc3cccc(N[C@@H]4CCOC4)c3C2)c(OCc2ccccc2)c1 | 100 to 1000 nM
* N#Cc1cc(O)c(C(=O)N2Cc3cccc(N[C@H]4CCOC4)c3C2)c(OCC2CC2)c1 | 1000 to 10000 nM
* CN(C)Cc1cc2c(c(N[C@H]3CCOC3)c1)CN(C(=O)c1c(O)cc(C(F)F)cc1OCc1ccccc1)C2 | 100 to 1000 nM
* COc1cc2c(c(N[C@@H]3CCOC3)c1)CN(C(=O)c1c(O)cc(C#N)cc1OCc1ccccc1)C2 | 100 to 1000 nM
* CN1CCN(Cc2ccc3c(c2)CN(C(=O)c2c(O)cc(C(F)F)cc2OCc2ccccc2)C3)CC1 | 100 to 1000 nM

The molecule "N#Cc1cc(O)c(C(=O)N2Cc3cccc(NC4COC4)c3C2)c(OCc2ccccc2)c1" showed IC50 equal to 100 to 1000 nM

Data point: "Cn1cnc(-c2cc3c(c(N[C@H]4CCOC4)c2)CN(C(=O)c2c(O)cc(C(F)F)cc2OCc2ccccc2)C3)c1" ; IC50 = 100 to 1000 nM

# IC50 (molecule: "CC(=O)N1CC[C@@H](Nc2cccc3c2CN(C(=O)c2c(O)cc(C#N)cc2OCc2ccccc2)C3)C1" ) is 100 to 1000 nM

// recorded IC50 for "CN1CCN(c2cc3c(cn2)CN(C(=O)c2c(O)cc(C#N)cc2OCc2ccccc2)C3)CC1" : 1000 to 10000 nM

Lab note: "CN(C)CCOc1cc2c(c(NC3CCCC3)c1)CN(C(=O)c1c(O)cc(C(F)F)cc1OCc1ccccc1)CC2" gave IC50 of < 100 nM

# IC50 (molecule: "O=C(c1c(O)cc(C(F)F)cc1OCc1ccccn1)N1Cc2cccc(NC3COC3)c2C1" ) is 100 to 1000 nM

The reported IC50 of the molecule O=C(c1c(O)cc(C(F)F)cc1OCc1ccccc1)N1CCc2cc(NC3CCOC3)ccc21 (single isomer, unassigned) [Example 27.5b] was 100 to 1000 nM

Input "CN1CC[C@H](Oc2ccc3c(c2)CN(C(=O)c2c(O)cc(C#N)cc2OCc2ccccc2)C3)C1" . Output IC50: 100 to 1000 nM
